// values below are GI50; system is HCT-15
Numbers only here, please. The scale is µM.

Compound	GI50 (µM)
COc1ccccc1C(=O)OCC1CCCN2CCCCC12 (stereo not drawn)	36.6
Cc1c(/C=N/NC(=O)c2cc(Br)cc(Br)c2O)c(=O)n(-c2ccccc2)n1C	39.1
COc1ccc(/C(Cl)=C(\C=O)c2ccc(Br)cc2)cc1OC	25.1

Lookup: Name the reported GI50 value associated with the compound O=C(C1OC1c1cccc([N+](=O)[O-])c1)C12CC3CC(CC(C3)C1)C2 (stereo not drawn)
Found: 4.3

Lookup: Name the reported GI50 value associated with the compound "Oc1cnc2c(O)cccc2c1"
Found: 33.5

Lookup: Name the reported GI50 value associated with the compound "Cc1cc(C)c2c(O)c(S(=O)(=O)c3ccc(Cl)cc3)c(=O)oc2c1"
Found: 49.7

###

# Tested on: UACC-62
# Assay Overview: NCI tumour cell line growth inhibition, 48 h
Active and inactive are the calls of the source. No stated cut-off is given here; in the data, active = GI50 up to about 1.1 µM and inactive = higher.
Parameter: GI50

Here are 5 compounds together with their reported answers.
Compound	GI50
CCSC1=CC(=O)c2nc3ccccc3c3ccnc1c23	2.05 µM (inactive)
COC(=O)[C@H](COC(=O)/C=C/c1ccc(OC(C)=O)c(OC(C)=O)c1)NC(=O)/C=C/c1ccc(OC(C)=O)c(OC(C)=O)c1	15 µM (inactive)
COc1cc2c(SCCN(C)C)nc3ccccc3c2c2ccccc12	1.63 µM (inactive)
O=C1OC(C2Cc3ccc4c(c3C2=O)CCCC4)c2ccccc21 (stereo not drawn)	23.7 µM (inactive)
C[N+](C)(C)CC(=O)N/N=C(\C(=O)NC1=C(Cl)C(=O)c2ccccc2C1=O)C(C#N)c1nc(-c2ccc([N+](=O)[O-])cc2)cs1 (stereo not drawn)	3.83 µM (inactive)

Lookup: Name the reported GI50 value associated with the compound "COc1cc2c(cc1OC)C(=O)/C(=C/c1cc(OC)c(OC)c(OC)c1)C2"
Found: > 100 µM (inactive)

Lookup: Name the reported GI50 value associated with the compound O=C1O[B-](c2ccccc2)(c2ccccc2)[NH2+]C1CS (stereo not drawn)
Found: 42 µM (inactive)

Lookup: Name the reported GI50 value associated with the compound C=C1C(=O)O[C@H]2[C@H]1[C@H](OC(=O)/C(C)=C\C)C[C@]1(CO1)[C@@H]1[C@H](OC(C)=O)C=C(C)[C@]21O [EUPAROTIN ACETATE]
Found: 15.5 µM (inactive)

###

# System: SW-620
# Assay Overview: NCI tumour cell line growth inhibition, 48 h
Calls of active or inactive are those of the source. Cut-off read from the data, not from the text of the source: active = GI50 up to about 1.1 µM and inactive = higher.
Hi there, use one of these labels in your reply, thanks! active, inactive

Lookup: In this assay, the call recorded for CCOC(=O)C(Cl)(Cl)/S(=N\S(=O)(=O)c1ccccc1)NC(=O)c1ccccc1 (stereo unspecified) was what?
Found: inactive

Lookup: In this assay, the call recorded for "O=C1/C(=C2/C(=O)N(c3ccccc3)c3ccccc32)Nc2ccccc21" was what?
Found: inactive

Lookup: In this assay, the call recorded for "C=C(CN(C)C)C(=O)c1ccc(C)cc1C" was what?
Found: inactive

Lookup: In this assay, the call recorded for "OCCCSc1ccccc1SCCCO" was what?
Found: inactive

Lookup: In this assay, the call recorded for "Cc1cc(C)nc(NS(=O)(=O)c2ccc(Nc3c4ccccc4nc4c(C(=O)N5CCN(CCO)CC5)cccc34)cc2)n1" was what?
Found: inactive

Lookup: In this assay, the call recorded for CC(=O)OC1C[C@H]2C(OC(=O)c3ccccc3)C3C4(OC(C)=O)COC4C[C@H](OC(C)=O)[C@@]3(C)C(OC(C)=O)[C@H](OC(C)=O)C(=C1C)C2(C)C (stereo partly specified) was what?
Found: inactive

Lookup: In this assay, the call recorded for "COC(=O)c1ccccc1/C=C1\Cc2cc(C)cc(C)c2C1=O" was what?
Found: inactive
